B1: HDV Ribozyme (parent)
chain: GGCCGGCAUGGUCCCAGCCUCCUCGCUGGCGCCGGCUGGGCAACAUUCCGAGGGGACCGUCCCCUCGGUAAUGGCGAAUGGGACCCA

# Variants of: B1
# TEST_METHOD_NOTES: self-cleavage, relative activity (ratio to wild type); higher = more cleavage; co-transcriptional
Kindly return Satisfied if reported self-cleavage is no lower than 0.7; return Not satisfied if it is lower.

                            record_sequence  qualitative_label
0  GGCCGGCAUGGUCCCAGCCUCCUCGCUGGCGCUGGCUGGGCAACAUUCCGAGGGGACCAUCCCCUCGGUAAUGGCGAAUGGGACCCA          Satisfied
1  GGCCGGCAUGGUCCCAGCCUCCUCGCUGGCGCCGGCUGGGCAACAUUCCGAGGUGACCGUCCCCUCGGUAAUGGCGAAUGGGACCCU          Satisfied
2  GGCCGGCAUGGUCCCAGCCUCCUCGCUGGCGCCGGCUGGGCAACAUUCCGAGGGGACCGUCCCCUCGGUAAUGCCGAAUGGGACCCC      Not satisfied
3  GGCCGGCAUGGUCCCACCAUCCUCGCUGGCGCCGGCUGGGCAACAUUCCGAGGGGACCGUCCCCUCGGUAAUGGCGAAUGGGACCCA      Not satisfied
4  GGCCGGCAUGGUCCCAGCCUCCUCUCUGGCGCCGGCUCGGCAACAUUCCGAGGGGACCGUCCCCUCGGUAAUGGCGAAUGGGACCCA      Not satisfied

Prompt line: State whether the measured self-cleavage reaches 0.7, counting equality as reaching it, for `GGCCGGCAUGGUCCCAGCCUCCUCGCUGGCGCCGGCUGGGCAACAGUCCGAGGGGACCGUCCCCUUGGUAAUGGCGAAUGGGACCCA`
Response line: Not satisfied

Prompt line: State whether the measured self-cleavage reaches 0.7, counting equality as reaching it, for `GGCCGGCAUGGUCCCAGCCUCCUCGCUGGCGCCGGCUGGGCAACAUUCCGACGGGACCGUCCCCUCGGUAAAGGCGAAUGGGACCCA`
Response line: Satisfied

Prompt line: State whether the measured self-cleavage reaches 0.7, counting equality as reaching it, for `GGCCGGCAUGGUCCCAGCCUCCUCGCUGGCGACGGCUGGGCAACAUUCCGAGGGGACCGUCCCCUCGGUAAUGGCGAAUGGGACACA`
Response line: Not satisfied

Prompt line: State whether the measured self-cleavage reaches 0.7, counting equality as reaching it, for `GGCCGGCAUGGUCGCAGCCUCCUCGCUGGCGCCGGCUGGGCAACAUUCCGAGGGGACCGUCCCCUCGGUAAUGGCGAAUGGGACCCU`
Response line: Satisfied

Prompt line: State whether the measured self-cleavage reaches 0.7, counting equality as reaching it, for `GGCCGGCAUGGUCCCAGCCUCCUCGCUGGCGUCGGCUGGGCAACAUUCCGAGGGGACCGUCCCCUCGGUAAUGGCGACUGGGACCCA`
Response line: Not satisfied

Prompt line: State whether the measured self-cleavage reaches 0.7, counting equality as reaching it, for `GGCCGGCAUGGUCCCAGCCUCCUCGCUGGCGCCAGCUGGACAACAUUCCGAGGGGACCGUCCCCUCGGUAAUGGCGAAUGGGACCCA`
Response line: Not satisfied

Prompt line: State whether the measured self-cleavage reaches 0.7, counting equality as reaching it, for `GGCCGGCAUGGUCCCAGGCUCCUCCCUGGCGCCGGCUGGGCAACAUUCCGAGGGGACCGUCCCCUCGGUAAUGGCGAAUGGGACCCA`
Response line: Not satisfied

Prompt line: State whether the measured self-cleavage reaches 0.7, counting equality as reaching it, for `GGCCGGCAUGGUCCCAGCCUCAUCGCUGGCGCGGGCUGGGCAACAUUCCGAGGGGACCGUCCCCUCGGUAAUGGCGAAUGGGACCCA`
Response line: Not satisfied

Prompt line: State whether the measured self-cleavage reaches 0.7, counting equality as reaching it, for `GGCCGGCAUGGGCCCAGCCUCCUCGCUGGCGCCGGCUGGGCAACAUUCCGAGGGGACCAUCCCCUCGGUAAUGGCGAAUGGGACCCA`
Response line: Satisfied
